Examples of molecules with documented HSV-1 infection follow.
# Test system: HSV-1 strain 17 YFP-ICP4 in A549
# Method description: HSV-1 infection relative to DMSO (ICP4-YFP per H2B-RFP signal); higher = more viral infection (less antiviral activity), active = hit call of the paper
# Protocol conditions: 10 µM; 48 h; MOI: 0.1
Screen size: about 1,700 compounds; about 15 (0.9%) showed activity. Many of the other results were omitted from the sample, so actives are more common in it than they were.
Value expressed in %; do not type the unit.

O=C([O-])[C@H](O)[C@@H](O)[C@H](O)[C@H](O)CO.O=C([O-])[C@H](O)[C@@H](O)[C@H](O)[C@H](O)CO.[Ca+2] [Calcium gluconate]	83.3

For the next question, use this molecule.
Qu. For Cc1cc(C)c2c(c1)[C@@H](N(Cc1cc(C(F)(F)F)cc(C(F)(F)F)c1)c1nnn(C)n1)CCCN2C[C@H]1CC[C@H](C(=O)O)CC1 , what is its reported HSV-1 infection?
Ans. 88.1

====

# System: HSV-1 strain 17 YFP-ICP4 in A549
# Method description: HSV-1 infection relative to DMSO (ICP4-YFP per H2B-RFP signal); higher = more viral infection (less antiviral activity), active = hit call of the paper
# Protocol conditions: 10 µM; 48 h; MOI: 0.1
Among all 1,700 compounds or so, about 15 (0.9%) showed activity. The sample as a whole holds a higher share of actives than the screen did.
# HSV-1 infection values compiled below
Only the number, expressed in %, is required.

Guide cases for HSV-1 infection, answers given:
CC[C@@H]1C(=O)N(C)c2cnc(Nc3ccc(C(=O)N[C@H]4CC[C@H](N5CCN(CC6CC6)CC5)CC4)cc3OC)nc2N1C(C)C [Volasertib (BI 6727)]	29.3
CN(C)N(C)C(=O)[C@@]1(Cc2ccccc2)CCCN(C(=O)[C@@H](Cc2c[nH]c3ccccc23)NC(=O)C(C)(C)N)C1 [Anamorelin]	97
CNC(=O)c1ccc2cc([C@@]3(O)CCn4cncc43)ccc2c1 [TAK-700 (Orteronel)]	58.5
CCOc1ccc(Cc2cc([C@@H]3O[C@H](SC)[C@@H](O)[C@H](O)[C@H]3O)ccc2Cl)cc1 [Sotagliflozin (LX4211)]	111

// next entry
Qu. May I ask what HSV-1 infection has been recorded for CCNC(=O)[C@@H]1CCCN1C(=O)[C@H](CCCNC(=N)N)NC(=O)[C@H](CC(C)C)NC(=O)[C@@H](CC(C)C)NC(=O)[C@H](Cc1ccc(O)cc1)NC(=O)[C@H](CO)NC(=O)[C@H](Cc1c[nH]c2ccccc12)NC(=O)[C@H](Cc1c[nH]cn1)NC(=O)[C@@H]1CCC(=O)N1 [Leuprolide Acetate] ?
Ans. 113

====

# System: HSV-1 strain 17 YFP-ICP4 in A549
# Method description: HSV-1 infection relative to DMSO (ICP4-YFP per H2B-RFP signal); higher = more viral infection (less antiviral activity), active = hit call of the paper
# Protocol conditions: 10 µM; 48 h; MOI: 0.1
Where a name gives a salt, the structure may show the parent alone. In all, about 1,700 compounds went through this assay and about 15 (0.9%) showed activity. The sample holds actives, similar compounds and a random draw of the others, so the mix is not that of the screen.
Reported values of HSV-1 infection for individual entries
Answer in %, number only, no unit symbol.

Example entries and their recorded answers appear below.
CC(C)C[C@H](NC(=O)CNC(=O)c1cc(Cl)ccc1Cl)B1OC(=O)C(CC(=O)O)(CC(=O)O)O1 [Ixazomib Citrate (MLN9708)]	80.4
C1=N/C2=N/c3ccc(OCCN4CCCC4)c(c3)COC/C=C/COCc3cccc(c3)C(=C1)N2 [Pacritinib (SB1518)]	22.2
CN(C(=O)c1ccc(F)cc1C(F)(F)F)C1CCN(c2nnc(-c3ccnn3C)c3ccccc23)CC1	113

# next compound below
Qu. Requested read-out: HSV-1 infection. Entry: CC1CCC(C(C)C)C(O)C1 (single isomer, unassigned; (-)) [(-)-Menthol]
Ans. 99.1
